test: CEETOX_H295R_OHPREG: CeeTox H295R High-throughput Steroidogenesis Assay for OH-Pregnenolone (OHPREG) (AID 2283434); conditions: actives raise or lower the signal
Active and inactive are the calls of the source. Rule for the calls: active = hit-call score of the fitted dose curve at least 0.9, where 1 is the maximum; inactive = score below 0.9.
Parameter call: string, one of active, inactive

Past entries and their recorded results:
stdin: Tell me the assay call for C=COCCCC please.
stdout: inactive

stdin: Hello, I am checking results. What call was entered for CO[Si](CCC1CCC2OC2C1)(OC)OC (configuration not stated) ?
stdout: inactive

stdin: Which result was noted for this molecule in the test: CCCCNc1ccc(NCCCC)c2c1C(=O)c1ccccc1C2=O
stdout: inactive

stdin: For CCCCC/C=C\CCC=O , what call appears in the results of this test?
stdout: inactive

stdin: Entry S=C(NC1CCCCC1)NC1CCCCC1 : call = ?
stdout: inactive

stdin: Write down the call the test reported for this molecule. Item: O=C(C=Cc1ccccc1)OCc1ccccc1
stdout: active

stdin: Just curious, what result did O=C(Nc1ccccc1SSc1ccccc1NC(=O)c1ccccc1)c1ccccc1 get here?
stdout: inactive

stdin: GET /call?item= Cc1ccc(C(C)c2ccc(C)c(C)c2)cc1C returns the recorded outcome of this test.
stdout: active

stdin: Field: outcome | Entry: CN(C)c1ccc(C(=N)c2ccc(N(C)C)cc2)cc1
stdout: active

stdin: For C#CC1(O)CC[C@H]2[C@@H]3CCC4=CCCC[C@@H]4[C@H]3CC[C@@]21C (some centres not stated) , what call appears in the results of this test?
stdout: inactive

***
stdin: Recorded test call requested for COC(=O)c1c(C)cc(O)c(C)c1O
stdout: inactive

stdin: Look up the recorded call for Oc1ccc(Cl)cc1Cc1cc(Cl)ccc1O in this test.
stdout: inactive

Cited source: PubChem BioAssay (EPA / NIEHS)
